System: Klebsiella pneumoniae: Ciprofloxacin-resistant isolate, ESBL, clinical isolate (KP-3700)
Assay: MIC determination (CLSI), KP-3700
Format: cell-based
Protocol: The in vitro antibacterial activity of compounds described in the Examples was evaluated by minimum inhibitory concentration (MIC) testing according to Clinical and Laboratory Standards Institute (CLSI, formerly NCCLS) guidelines. See: Clinical and Laboratory Standards Institute. Methods for Dilution Antimicrobial Susceptibility Tests for Bacteria that Grow Aerobically; Approved Standard-Seventh Edition. CLSI document M7-A7 [ISBN 1-56238-587-9]. […]
observation-type: KP-3700 MIC (µg/mL)
Report only the number, with the unit µg/mL understood.

q: What measured KP-3700 MIC goes with CC(CCc1ccc(-c2ccc(F)cc2)cc1O)(C(=O)NO)S(C)(=O)=O (racemic) ?
a: 32

q: Also check COc1ccc(-c2ccc(CCC(C)(C(=O)NO)S(C)(=O)=O)cc2)cn1 (racemic)
a: 32

q: Field entry: CC(CCc1ccc(OCCCC2CCCC2)cc1)(C(=O)NO)S(C)(=O)=O (stereo not shown)
a: 16
